Hey, just so you know, these numbers are from ChEMBL document CHEMBL2069278.

# Tested on: HCT-116
# procedure text: Cytotoxicity against human HCT116 cells after 72 hrs by MTT assay
# Format: functional, cell-based
# condition parameters: HCT-116, 72 h
property name: IC50

[[record]]
smiles_structure = "O=c1[nH]c2ccc(C3=NCCN3)cc2c2c1sc1cc(C3=NCCN3)ccc12"
property_name = "IC50"
result = "≥ 10 µM"

[[record]]
smiles_structure = "Cn1c(=O)c2sc3ccccc3c2c2cc(C3=NCCN3)ccc21"
property_name = "IC50"
result = "0.4 µM"

[[record]]
smiles_structure = "Cn1c(=O)c2sc3sccc3c2c2cc(C#N)ccc21"
property_name = "IC50"
result = "> 10 µM"

[[record]]
smiles_structure = "CN(C)CCCNC(=O)c1ccc(NC(=O)c2sc3cc([N+](=O)[O-])ccc3c2Cl)cc1"
property_name = "IC50"
result = "2 µM"

[[record]]
smiles_structure = "O=C(Nc1ccccc1)c1sc2cc(C3=NCCN3)ccc2c1Cl"
property_name = "IC50"
result = "2.8 µM"

[[record]]
smiles_structure = "Cn1c(=O)c2sc3cc(C#N)ccc3c2c2ccccc21"
property_name = "IC50"
result = "> 10 µM"

[[record]]
smiles_structure = "Cn1c(=O)c2sc3ccccc3c2c2cc(C#N)ccc21"
property_name = "IC50"
result = "> 10 µM"

